Data credit: ChEMBL document CHEMBL2203229

test: Antibacterial activity against Bacillus subtilis JH642 containing trpC2 pheA1 assessed as growth inhibition after 16 hrs by broth dilution method
Type: functional, Bacillus subtilis subsp. subtilis str. JH642
outcome measure: MIC (µM)
Output spec: scalar in µM, unitless text.

Please report the recorded MIC for "CCCCCCCCCCCCO[C@@H]1O[C@@H](C)[C@H](O[C@@H]2O[C@@H](C)[C@H](OC(C)=O)[C@@H](O[C@@H]3O[C@@H](C)[C@H](OC(C)=O)[C@@H](O[C@@H]4O[C@@H](C)[C@H](OC(C)=O)[C@@H](O)[C@H]4OC(C)=O)[C@H]3OC(C)=O)[C@H]2O)[C@@H](O)[C@H]1O" .
4

Please report the recorded MIC for "CCCCCCCCCCCCO[C@@H]1O[C@@H](C)[C@H](O[C@@H]2O[C@@H](C)[C@H](OC(C)=O)[C@@H](O[C@@H]3O[C@@H](C)[C@H](OC(C)=O)[C@@H](O[C@@H]4O[C@@H](C)[C@H](O)[C@@H](O)[C@H]4O)[C@H]3OC(C)=O)[C@H]2O)[C@@H](O)[C@H]1O" .
8

Please report the recorded MIC for "CCCCCCCCCCCCO[C@@H]1O[C@@H](C)[C@H](O[C@@H]2O[C@@H](C)[C@H](OC(C)=O)[C@@H](O[C@@H]3O[C@@H](C)[C@H](O)[C@@H](O[C@@H]4O[C@@H](C)[C@H](OC(C)=O)[C@@H](O)[C@H]4O)[C@H]3OC(C)=O)[C@H]2O)[C@@H](O)[C@H]1O" .
8

Please report the recorded MIC for "CCCCCCCCCCCCO[C@@H]1O[C@@H](C)[C@H](O[C@@H]2O[C@@H](C)[C@H](OC(C)=O)[C@@H](O[C@@H]3O[C@@H](C)[C@H](OC(C)=O)[C@@H](O)[C@H]3OC(C)=O)[C@H]2O)[C@@H](O)[C@H]1O" .
32
